assayExplanation: JC-1 mitochondrial signal, unstimulated MM1S myeloma – cell-based, JC-1 fluorescence, 24 h, 100 nL compound, profiling panel (AID 1170); further: test concentration not given here
studyConditions: MM1S mitochondrial potential, higher = more signal
Item-by-item account of z-score

| compound | z-score |
| --- | --- |
| COc1ccc([Si](C)(C)[C@@H]2[C@@H](CC(=O)N3Cc4ccccc4C[C@H]3CO)O[C@]3(C(=O)N(Cc4cccc(N5C(=O)COc6ccccc65)c4)c4ccccc43)[C@H]2C)cc1 | -0.974 |
| COC(=O)c1c(CC[C@@H](CO)NC(=O)Nc2ncn[nH]2)oc(C(=O)Cc2ccccc2)c1C(=O)OC | -0.286 |
| CCOC(=O)C1=C[C@@H](C(C)(C)C)N(S(=O)(=O)c2ccc(C)cc2)[C@H]1c1ccc(Cl)c(Cl)c1 | -1.33 |
| COCCOC(=O)N1C(=O)[C@@]2(c3cc(C#Cc4ccc(OC)cc4)ccc31)[C@H](C(N)=O)[C@H]1C(=O)O[C@H](c3ccccc3)[C@H](c3ccccc3)N1[C@@H]2c1ccc(O)cc1 | -0.317 |
| CC(C)(C)OC(=O)CC[C@]1(C(=O)NCC(O)CO)N=C(c2ccc(OCCCO)cc2)O[C@H]1c1ccccc1CN=[N+]=[N-] (some centres undefined) | 0.649 |
| CN(C)CCCC[C@@H]1NC(=O)[C@H]2C[C@@H](C(=O)NCCCCCNC(=O)CS)[C@@H](c3ccc(O)cc3)N2C1=O | 0.543 |
| CC(=O)NCCCC[C@@H]1NC(=O)[C@@H]2C[C@H](C(=O)NCCCCCC[N+](C)(C)C)[C@H](c3cccc(OCCO)c3)N2C1=O | -0.12 |
| C=CC[C@]1(C(=O)NCCN2CCOCC2)N=C(c2ccc(OCCCO)cc2)O[C@H]1c1ccccc1N=[N+]=[N-] | 0.472 |
| CS(=O)(=O)CCOC(=O)C1=CC(c2ccc(CO)cc2)=CC(c2cccs2)N(Cc2cccc(OC(F)(F)F)c2)C=C1C(=O)OCCS(C)(=O)=O (centres undefined) | -1.28 |
| C=C(CCCC)C(=O)CC[C@H](OC(=O)c1ccccc1-c1ccccc1C(=O)O)c1ccc(CO)o1 | 0.063 |
| C#C[C@H](O[Si](C#CCCCCCC)(C(C)C)C(C)C)c1ccccc1 | -0.772 |
| CN(C)CCCCNC(=O)[C@@H]1C[C@@H]2C(=O)N[C@@H](CCCCN)C(=O)N2[C@@H]1c1cccc(OCCO)c1 | -0.0289 |
| O=C1C2C=CC(C(O)c3ccc(B(O)O)cc3)N(Nc3ccc([N+](=O)[O-])cc3)C2C(=O)N1c1ccccc1 (centres undefined) | -1.22 |
| COCCOC(=O)N1C(=O)[C@@]2(c3ccccc31)[C@H](C(=O)N1CCCCCCC1)[C@H]1C(=O)O[C@H](c3ccccc3)[C@H](c3ccccc3)N1[C@@H]2c1ccccc1OCCO | -1.04 |

---

Item-by-item account of z-score
assayExplanation: JC-1 mitochondrial signal, unstimulated adipocytes – cell-based, JC-1 fluorescence, 3T3-L1 adipocytes, 24 h, 100 nL compound, profiling panel (AID 1168); further: test concentration not given here
studyConditions: JC-1 mitochondrial fluorescence, higher = more signal, called active from +8 up or from −8 down

| compound | z-score |
| --- | --- |
| CC(C)C(O)C1C=CC2C(=O)N(C)C(=O)C2N1N1CCCCC1 (configuration not stated) | -0.307 |
| O=c1cccc(-c2cccc3ccccc23)o1 | 1.05 |
| C=C(COC)C(=O)CC[C@H](OC(=O)c1cccnc1)c1ccccc1OCCO | 0.0833 |
| COc1ccc([Si](C)(C)[C@@H]2[C@@H](CCO)O[C@]3(C(=O)N(Cc4ccccc4)c4ccc(N(C=O)c5ccccc5)cc43)[C@H]2C)cc1 | -0.435 |
| C/C=C/[C@H](CCn1cc([C@H](O)c2ccccc2)nn1)[Si](C)(C)c1ccc(OC)cc1 | 0.644 |
| CCCCN1CC=CC23O[C@@H]4/C=C\CCCOC(=O)C4[C@H]2C(=O)N(C(C)CO)[C@@H]3C1=O (some centres not stated) | 0.0147 |
| NC(=O)[C@]1(Cc2ccccc2)N=C(c2ccc(OCCCO)cc2)O[C@@H]1c1ccccc1 | -0.517 |
| CC(C)N1C(=O)c2ccccc2[C@](C)(C(=O)NCCCN(C)C)[C@@H]1c1ccc(CO)cc1 | -0.253 |
| CCCNC(=O)[C@@]1(C)c2ccccc2C(=O)N(C(C)C)[C@H]1c1ccc(CO)cc1 | -0.0917 |
| C=C(C(=O)CC[C@@H](OC(=O)c1cccnc1)c1ccc(CO)o1)C(C)C | 0.0907 |
| COCCCNC(=O)[C@@]1(Sc2ccc(C)cc2)CC(=O)N(Cc2ccccc2)[C@@H]1c1ccc(CO)cc1 | -0.265 |
| O=C1O[C@H](c2ccccc2)[C@H](c2ccccc2)N2[C@H]1[C@@H](C(=O)N1CCCCCCC1)[C@]1(C(=O)Nc3ccc(C#CC4=CCCCC4)cc31)[C@H]2c1ccc(O)cc1 | 0.634 |
| [N-]=[N+]=NCc1ccccc1C[C@]1(C(=O)NCc2ccccc2)COC(c2ccc(OCCCO)cc2)=N1 | 0.768 |
| Cc1c(NC(=O)/C(C#N)=C/C=C/c2ccccc2)c(=O)n(-c2ccccc2)n1C | -0.113 |
| CCCC[C@@H]1C[C@H]1[C@@H](NC(=O)c1ccco1)c1ccccc1 | -1.27 |
| COC(=O)C(CC#Cc1ccc2c(c1)[C@]1(C(=O)N2)[C@H](C(=O)N2CCCCCCC2)[C@H]2C(=O)O[C@H](c3ccccc3)[C@H](c3ccccc3)N2[C@@H]1c1ccccc1OCCO)C(=O)OC | 1.09 |
| CCCNC(=O)[C@@]1(c2ccc([N+](=O)[O-])cc2)CC(=O)N(CC23CC4CC(CC(C4)C2)C3)[C@@H]1c1ccc(CO)cc1I | -0.0911 |

---

tgt: Concanavalin-A (Canavalia ensiformis) (UniProt P02866)
Sequence (P02866 whole entry, looked up): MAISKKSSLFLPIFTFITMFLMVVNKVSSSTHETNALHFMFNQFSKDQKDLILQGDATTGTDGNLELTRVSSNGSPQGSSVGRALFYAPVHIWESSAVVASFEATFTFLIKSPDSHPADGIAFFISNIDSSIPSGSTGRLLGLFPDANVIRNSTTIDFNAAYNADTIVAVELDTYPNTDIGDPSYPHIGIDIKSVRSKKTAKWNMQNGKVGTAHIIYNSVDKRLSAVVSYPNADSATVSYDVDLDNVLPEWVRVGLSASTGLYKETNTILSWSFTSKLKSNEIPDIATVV
assayExplanation: compounds binding concanavalin A lectin – biochemical, small-molecule microarray, Alexa647 label, 635 nm, artefact control for SMM control protein annotation, primary screen (AID 1127);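 further: z combines 667 nm emission intensity with signal-to-noise across three replicate slides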
studyConditions: ConA-A647 binding fluorescence, higher = more signal
Please note: Met applies when composite z-score is 0.2 or greater, and Not met applies otherwise.

| molecule | tgt | label |
| --- | --- | --- |
| O=C1C2C=CC(C(O)c3ccc(Br)cc3)N(n3cnnc3)C2C(=O)N1Cc1ccccc1 (stereo not given) | Concanavalin-A (Canavalia ensiformis) (UniProt P02866) | Met |
| Cc1ccc(S[C@]2(C(=O)NCC(F)(F)F)CC(=O)N(C3Cc4ccccc4C3)[C@@H]2c2ccc(CO)cc2I)cc1 | Concanavalin-A (Canavalia ensiformis) (UniProt P02866) | Not met |
| O=C1O[C@H](c2ccccc2)[C@H](c2ccccc2)N2[C@H]1[C@@H](C(=O)N1CCCCCCC1)[C@]1(C(=O)Nc3ccc(C#CC4=CCCCC4)cc31)[C@H]2c1ccc(O)cc1 | Concanavalin-A (Canavalia ensiformis) (UniProt P02866) | Met |
| C=CCOC(=O)[C@@H]1[C@H]2C(=O)O[C@H](c3ccccc3)[C@H](c3ccccc3)N2[C@H](c2ccc(OCCOC(=O)[C@H]3C[C@H]4C(=O)N[C@@H](CC(C)C)C(=O)N4[C@H]3c3cccc(OCCO)c3)cc2)[C@@]12C(=O)Nc1ccc(I)cc12 | Concanavalin-A (Canavalia ensiformis) (UniProt P02866) | Met |
| C=C(CCCC)/C(=C/C[C@H](OC(C)=O)c1ccc(CO)o1)c1cc(C(=O)OC)ccc1OC | Concanavalin-A (Canavalia ensiformis) (UniProt P02866) | Met |
| C=CCOC(=O)[C@@H]1[C@H]2C(=O)O[C@H](c3ccccc3)[C@H](c3ccccc3)N2[C@H](c2ccc(OCCOC(=O)[C@H]3C[C@H]4C(=O)N[C@@H](Cc5ccccc5)C(=O)N4[C@H]3c3ccc(O)cc3)cc2)[C@@]12C(=O)Nc1ccc(I)cc12 | Concanavalin-A (Canavalia ensiformis) (UniProt P02866) | Met |
| COCC1=C([C@H](O)CCc2ccccc2)[C@H](CO)[C@@H]2C(=O)N(Cc3ccccc3)C(=O)[C@@H]2C1 | Concanavalin-A (Canavalia ensiformis) (UniProt P02866) | Not met |
| C[N+](C)(C)CCCCNC(=O)[C@H]1C[C@H]2C(=O)N3CCC[C@H]3C(=O)N2[C@H]1c1ccc(O)cc1 | Concanavalin-A (Canavalia ensiformis) (UniProt P02866) | Met |
| C=C(C)[C@@H]1CC=C(C(O)C2C=CC3C(=O)N(Cc4ccccc4)C(=O)C3N2n2cnnc2)CC1 (stereo not given in full) | Concanavalin-A (Canavalia ensiformis) (UniProt P02866) | Met |
| CCCCN1CC=CC23O[C@@H]4/C=C\CCCOC(=O)C4[C@H]2C(=O)N(C(C)CO)[C@@H]3C1=O (stereo not given in full) | Concanavalin-A (Canavalia ensiformis) (UniProt P02866) | Not met |
| O=C(N1CCCCC1)[C@]1(CCS(=O)(=O)c2ccccc2)N=C(c2ccc(OCCCO)cc2)O[C@@H]1c1ccccc1 | Concanavalin-A (Canavalia ensiformis) (UniProt P02866) | Met |
| NC(=O)NCC#Cc1ccc2c(c1)[C@]1(C(=O)N2)[C@H](c2ccc(O)cc2)N2[C@H](c3ccccc3)[C@H](c3ccccc3)OC(=O)[C@H]2[C@@H]1C(=O)N1CCN(c2ncccn2)CC1 | Concanavalin-A (Canavalia ensiformis) (UniProt P02866) | Met |
| CCCCC(=O)N(Cc1ccccc1F)[C@@H]1CC(C(=O)NCCO)=C[C@H](Oc2c(I)cc(CO)cc2OC)[C@H]1O | Concanavalin-A (Canavalia ensiformis) (UniProt P02866) | Met |
| Cc1ccccc1/C=C/C=O | Concanavalin-A (Canavalia ensiformis) (UniProt P02866) | Not met |
| CC(C)(C)OC(=O)CC[C@@]1(C(N)=O)N=C(c2ccc(OCCCO)cc2)O[C@@H]1c1ccccc1N=[N+]=[N-] | Concanavalin-A (Canavalia ensiformis) (UniProt P02866) | Met |
| C=CCN1C(=O)[C@]2(Cc3ccccc31)N=C(c1ccc(OCCCO)cc1)O[C@@H]2c1ccccc1 | Concanavalin-A (Canavalia ensiformis) (UniProt P02866) | Met |
| O=c1cccc(-c2ccc3ccccc3c2)o1 | Concanavalin-A (Canavalia ensiformis) (UniProt P02866) | Not met |
| C=CCN1Cc2ccccc2C[C@@]2(COC(c3ccc(OCCCO)cc3)=N2)C1=O | Concanavalin-A (Canavalia ensiformis) (UniProt P02866) | Met |
| Cc1cccc(/C=C/C=O)c1 | Concanavalin-A (Canavalia ensiformis) (UniProt P02866) | Met |
| CC(C)NC(=O)[C@@]1(c2ccc([N+](=O)[O-])cc2)CC(=O)N(C(C)C)[C@@H]1c1ccc(CO)cc1 | Concanavalin-A (Canavalia ensiformis) (UniProt P02866) | Not met |
| O=C1OCC=C[C@H]2OC34C=CCN(Cc5ccccc5)C(=O)[C@H]3N(CCCO)C(=O)[C@@H]4[C@@H]12 (stereo not given in full) | Concanavalin-A (Canavalia ensiformis) (UniProt P02866) | Met |
| COCCOC(=O)N1C(=O)[C@@]2(c3cc(C#CC4=CCCCC4)ccc31)[C@H](c1ccc(OCCO)cc1)N1[C@H](c3ccccc3)[C@H](c3ccccc3)OC(=O)[C@H]1[C@@H]2C(=O)Nc1nc2ccccc2s1 | Concanavalin-A (Canavalia ensiformis) (UniProt P02866) | Met |
| COc1ccc([Si](C)(C)[C@H]2[C@H](CCO)O[C@@]3(C(=O)N(Cc4ccccc4)c4ccc(N5C(=O)COc6ccccc65)cc43)[C@@H]2C)cc1 | Concanavalin-A (Canavalia ensiformis) (UniProt P02866) | Met |
| O=C1C2C=CC(C(O)c3cccc4ccccc34)N(n3cnnc3)C2C(=O)N1Cc1ccccc1 (stereo not given) | Concanavalin-A (Canavalia ensiformis) (UniProt P02866) | Not met |
| O=C1OCC=C[C@H]2OC34C=CCN(CCN5CCOCC5)C(=O)[C@H]3N(CCCCCCO)C(=O)[C@@H]4[C@@H]12 (stereo not given in full) | Concanavalin-A (Canavalia ensiformis) (UniProt P02866) | Not met |
| CC(C)(C)OC(=O)CC[C@@]1(C(=O)N2CCOCC2)N=C(c2ccc(OCCCO)cc2)O[C@@H]1c1ccccc1N=[N+]=[N-] | Concanavalin-A (Canavalia ensiformis) (UniProt P02866) | Met |
| NC(=O)[C@]1(Cc2ccccc2)N=C(c2ccc(OCCCO)cc2)O[C@@H]1c1ccccc1 | Concanavalin-A (Canavalia ensiformis) (UniProt P02866) | Met |
| CC1CC/C=C\[C@H]2OC34C=CCN(c5ccc6ccccc6c5)C(=O)[C@H]3N(CCCCCO)C(=O)[C@@H]4C2C(=O)O1 (stereo not given in full) | Concanavalin-A (Canavalia ensiformis) (UniProt P02866) | Not met |
| C=C(COC)C(=O)CC[C@H](OC(=O)c1cccnc1)c1ccccc1OCCO | Concanavalin-A (Canavalia ensiformis) (UniProt P02866) | Met |
| COC(=O)[C@@]1(Cc2ccc(F)cc2)[C@H]2c3cc(C(=O)N4CCCC4)n(CCc4ccc(OC)c(Br)c4)c3C[C@H]2CN1C(=O)c1ccccc1 | Concanavalin-A (Canavalia ensiformis) (UniProt P02866) | Met |
